Target: T1, UNK ZnF1-6 (called full-length) (human, UniProt Q9C0B0 30-357)
T1 sequence: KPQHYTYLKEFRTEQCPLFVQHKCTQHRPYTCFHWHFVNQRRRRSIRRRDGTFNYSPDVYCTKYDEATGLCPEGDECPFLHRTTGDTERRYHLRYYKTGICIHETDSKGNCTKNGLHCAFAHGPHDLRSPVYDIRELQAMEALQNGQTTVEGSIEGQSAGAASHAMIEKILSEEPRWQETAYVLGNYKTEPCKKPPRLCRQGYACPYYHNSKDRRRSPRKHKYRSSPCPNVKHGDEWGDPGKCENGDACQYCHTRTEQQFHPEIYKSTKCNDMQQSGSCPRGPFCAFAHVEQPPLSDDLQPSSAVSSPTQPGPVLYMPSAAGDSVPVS
Test: nsRBNS (natural sequence RNA bind-n-seq); RBNS binding buffer (assumed for nsRBNS): 25 mM Tris pH 7.5, 150 mM KCl, 3 mM MgCl2, 0.01% Triton X-100, 500 ug/ml BSA, 20 U/ml SUPERase-In, 4 C; UNK is unkempt and MSI1 is Musashi-1; names of the RNAs are library labels; protein concentration not given here; high values mean tight binding
Whole data set: some 5,800 sequences, median “enrichment r” near 0.68, cut for the highest 2% near 11. These entries were drawn from the full list.
Consider the following binders and their measured binding signal readings.
API: value field is a number in enrichment R; no unit string.

Binder	binding signal / enrichment R
chr1:212100457:212100572:+|CDS|ENSG00000143476|unk|FALSE|unique (ssRNA) RNA: GGGAGUUCUACAGUCCGACGAUCAGAAGAGGCUCUGUCUCCUCCGUCUCUCCCAAGCCACCUUCAUCUUUCAAGAUGUCGAUUAGAAACUGGGUGACCCGAACACCUUCCUCAUCACCACCCAUCACUCCACCUGCUUCGGAGCAACAGAGGAUUGAGCAUCA	0.772

Now examine the next entry.
Ask: Need binding signal of chrX:112630647:112631419:-|three_prime_utr|ENSG00000182508|control|control|control (ssRNA) RNA: GGGAGUUCUACAGUCCGACGAUCAGAAGAUUGGAGAGGGUGGGAAAGGGGAGGAGGGAGCCCUGAAAAGAGGUACUAAGGAUUAGGCCAUUUGUCAUCUGACUGUCAUUAGCAUAGCCUAGUGUUUGCAUGCUUUUUAAACUACAACAGAGGAUUGAGCAUCA , thanks.
Reply: 1.14
